This section presents binders with their documented IC50 values.
Target: HLA-A*01:01 (human)
Experiment: radioligand competition, purified MHC

Guide cases for IC50, answers given:
INSERT INTO assay_data (binder, measured_quantity, result) VALUES
  ('ELPDEFVVVTV (modifications not checked) [… (SEQ ID NO: 8)]', 'IC50', '> 70 µM'),
  ('STSAFVETV (modifications not checked) [… (SEQ ID NO: 19)]', 'IC50', '12.7 µM'),
  ('KAFQLTPIAV (modifications not checked) [… (SEQ ID NO: 13)]', 'IC50', '> 70 µM'),
  ('SEFSSLPSY (modifications not checked) [… (SEQ ID NO: 27)]', 'IC50', '39.8 µM'),
  ('IRQEEVQEL (modifications not checked) [… (SEQ ID NO: 31)]', 'IC50', '> 70 µM');

Could you tell me which IC50 is on file for QLTPTWRVY (modifications not checked) [… (SEQ ID NO: 38)] ?
> 70 µM

GET /values?readout=IC50&item= EEFEPSTQYEY (modifications not checked) [… (SEQ ID NO: 20)]
> 70 µM

Please report the recorded IC50 for APRITFGGP (modifications not checked) [… (SEQ ID NO: 42)] .
> 70 µM
